Assay: chemical genetic growth profiling, strain panel (AID 1159580);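 note: tested at 20 µM; growth read once vehicle control cultures reached saturation at 30 °C; lower values mean less growth of the strain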
Conditions: S. cerevisiae deletion strains, growth OD, locus YLR039C, strain RIC1
In all, about 5,500 compounds went through this assay and about 2,000 (36%) were called active. Inconclusive results (about 18%) are left out. Cut-off read from the data, not from the text of the source: active = normalized growth mostly below about 0.91 (no sharp cut-off); inconclusive = no clear call, values can overlap the other calls; inactive = mostly above about 0.92. Some of the results follow.
Log the outcome using a class from y for active, n for inactive

Q: // outcome(item) with item = CCCCC1(COC(=O)CCC(=O)O)C(=O)N(c2ccccc2)N(c2ccccc2)C1=O
Ans: n

Q: // outcome(item) with item = CCCC(C)C1(CC)C(=O)NC(=O)NC1=O (stereo not given)
Ans: n

Q: // outcome(item) with item = O=C(NCCSCc1ccco1)c1ccc(Cl)cc1
Ans: y

Q: // outcome(item) with item = O=C(NCCSCc1ccc(Cl)cc1)c1ccc(Cl)cc1
Ans: n

Q: // outcome(item) with item = CCCCNC(=O)NCCSCc1ccco1
Ans: n

Q: // outcome(item) with item = Oc1c(I)cc(I)c2cccnc12
Ans: y

Q: // outcome(item) with item = C=CCC1(C(C)CCC)C(=O)N=C(S)NC1=O (stereo not given)
Ans: n

Q: // outcome(item) with item = COc1ccccc1OCCNCC(O)COc1cccc2[nH]c3ccccc3c12 (stereo not given)
Ans: n

Q: // outcome(item) with item = Nc1ccc(C(=O)NCC(=O)O)cc1
Ans: n

Q: // outcome(item) with item = CC(C)(C)NS(=O)(=O)NC(C)(C)C
Ans: n

Q: // outcome(item) with item = CC(C)(C)NCC(O)c1ccccc1Cl (stereo not given)
Ans: n

Q: // outcome(item) with item = C[n+]1cccc(C(=O)[O-])c1
Ans: n

Q: // outcome(item) with item = CCCCC(CC)CN1CN(CC(CC)CCCC)CC(C)(N)C1 (stereo not given)
Ans: y

Q: // outcome(item) with item = COc1cc2c(c(OC)c1OC)-c1ccc(O)c(=O)cc1[C@@H](NC(C)=O)CC2
Ans: y

Q: // outcome(item) with item = CN/C(=C\[N+](=O)[O-])NCCSCc1ccc(CN(C)C)o1
Ans: n

Q: // outcome(item) with item = COc1cc2c(c(OC)c1OC)-c1ccc(OC)c(=O)cc1[C@@H](NC(C)=O)CC2
Ans: n

Q: // outcome(item) with item = OC(CNCCc1cccs1)COc1ccccc1 (stereo not given)
Ans: n

Q: // outcome(item) with item = CC(C)N(C(=O)SCC(Cl)=C(Cl)Cl)C(C)C
Ans: n

Q: // outcome(item) with item = COC(=O)C[C@H]1C(C)(C)C(=O)[C@@H]2CC3=C4CC(=O)O[C@@H](c5ccoc5)[C@]4(C)CCC3[C@@]1(C)C2=O (stereo not given in full)
Ans: n

Q: // outcome(item) with item = N#Cc1c(N)sc2c1CCCCC2
Ans: n

Q: // outcome(item) with item = CC(=O)Oc1ccc(Cl)c2cccnc12
Ans: y

Q: // outcome(item) with item = Cc1cc(C)c(I)c(C)c1
Ans: n

Q: // outcome(item) with item = NCCNC(=O)c1ccc(Cl)cc1
Ans: n

Q: // outcome(item) with item = NCCCC[C@H](N[C@@H](CCc1ccccc1)C(=O)O)C(=O)N1CCC[C@H]1C(=O)O
Ans: n

Q: // outcome(item) with item = COc1cccc(C2C3=C(CC(C)(C)CC3=O)OC3=C2C(=O)CC(C)(C)C3)c1O
Ans: n
